Biological target: T1, Avi-UPF2-MIF4GIII (biotinylated) (UniProt Q9HAU5 761-1054, biotin on the Avi tag (BirA))
T1 sequence: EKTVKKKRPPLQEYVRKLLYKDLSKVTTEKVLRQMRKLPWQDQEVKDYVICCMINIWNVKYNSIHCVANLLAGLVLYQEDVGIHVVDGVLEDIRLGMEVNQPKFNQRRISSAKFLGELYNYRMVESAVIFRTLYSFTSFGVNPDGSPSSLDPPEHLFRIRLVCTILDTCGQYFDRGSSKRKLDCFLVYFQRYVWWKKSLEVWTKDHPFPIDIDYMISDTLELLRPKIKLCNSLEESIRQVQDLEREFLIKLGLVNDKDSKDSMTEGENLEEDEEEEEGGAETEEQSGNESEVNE
Test: SPR
measured.parameter: Kd (nM)

1. UPF3B-41-189 F163A (domain or fragment) DRNKEKKEALSKVVIRRLPPTLTKEQLQEHLQPMPEHDYFEFFSNDTSLYPHMYARAYINFKNQEDIILFRDRFDGYVFLDNKGQEYPAIVEFAPFQKAAKKKTKKRDTKVGTIDDDPEYRKALESYATDNEKMTSTPETLLEEIEAKN
2. UPF3B-41-189 Y167D (domain or fragment) DRNKEKKEALSKVVIRRLPPTLTKEQLQEHLQPMPEHDYFEFFSNDTSLYPHMYARAYINFKNQEDIILFRDRFDGYVFLDNKGQEYPAIVEFAPFQKAAKKKTKKRDTKVGTIDDDPEYRKFLESDATDNEKMTSTPETLLEEIEAKN
stdin: Decide: 1 or 2 , by lowest recorded Kd. When you have decided, please share the label of that item.
stdout: 2

a. UPF3B-41-189 Y160A (domain or fragment) DRNKEKKEALSKVVIRRLPPTLTKEQLQEHLQPMPEHDYFEFFSNDTSLYPHMYARAYINFKNQEDIILFRDRFDGYVFLDNKGQEYPAIVEFAPFQKAAKKKTKKRDTKVGTIDDDPEARKFLESYATDNEKMTSTPETLLEEIEAKN
b. UPF3B-41-143 (domain or fragment) DRNKEKKEALSKVVIRRLPPTLTKEQLQEHLQPMPEHDYFEFFSNDTSLYPHMYARAYINFKNQEDIILFRDRFDGYVFLDNKGQEYPAIVEFAPFQKAAKKK
stdin: Exercise: compare a and b ; which one has the greater Kd? When you have decided, please share the label of that item.
stdout: b
(b: 720 nM, a: 88 nM)
